# Assay Explanation: HPLC retention, log K of the compound
Measured Endpoint: log K

Example cases with answers are listed next.
O=C1N[C@@H](Cc2ccc(O)cc2)C(=O)N2Cc3[nH]c4ccccc4c3C[C@@H]12	0.01
C[C@@H]1NC(=O)[C@@H]2Cc3c([nH]c4ccccc34)CN2C1=O	0.47
O=C1N[C@@H](CO)C(=O)N2Cc3[nH]c4ccccc4c3C[C@@H]12	-0.16
CCC(C)[C@@H]1NC(=O)[C@@H]2Cc3c([nH]c4ccccc34)CN2C1=O (some centres undefined)	1.26

a: CSCC[C@@H]1NC(=O)[C@@H]2Cc3c([nH]c4ccccc34)CN2C1=O
b: NC(=O)CC[C@@H]1NC(=O)[C@@H]2Cc3c([nH]c4ccccc34)CN2C1=O
c: CC(O)[C@@H]1NC(=O)[C@@H]2Cc3c([nH]c4ccccc34)CN2C1=O (some centres undefined)
d: O=C1NCC(=O)N2Cc3[nH]c4ccccc4c3C[C@@H]12
e: NCCCC[C@@H]1NC(=O)[C@@H]2Cc3c([nH]c4ccccc34)CN2C1=O
Order field: log K | Direction: descending (largest first) Labels, ranked as asked. a, b, d, c, e
(a: 0.97, b: 0.28, d: 0.19, c: -0.14, e: -0.26)

====

# Tested on: Plasma
# Assay Explanation: Inhibition of ADP-induced platelet aggregation in pig platelet rich plasma
# Assay type: functional, cell-free
# Experimental Context: Sus scrofa
Measured Endpoint: IC50 (nM)
Quick reminder: number only, in nM, skip the unit.

What value of measured IC50 is listed for "CC(C)[C@@H]1NC(=O)[C@@H]2Cc3c([nH]c4ccccc34)CN2C1=O" ? 112

====

# Assay Explanation: HPLC retention, log K of the compound
Measured Endpoint: log K

Solved entries (count: 6):
O=C1N[C@@H](Cc2ccccc2)C(=O)N2Cc3[nH]c4ccccc4c3C[C@@H]12	1.05
O=C(O)C[C@@H]1NC(=O)[C@@H]2Cc3c([nH]c4ccccc34)CN2C1=O	0.15
N=C(N)NCCC[C@@H]1NC(=O)[C@@H]2Cc3c([nH]c4ccccc34)CN2C1=O	-0.58
CC(C)[C@@H]1NC(=O)[C@@H]2Cc3c([nH]c4ccccc34)CN2C1=O	0.97
O=C(O)CC[C@@H]1NC(=O)[C@@H]2Cc3c([nH]c4ccccc34)CN2C1=O	0.21
NC(=O)C[C@@H]1NC(=O)[C@@H]2Cc3c([nH]c4ccccc34)CN2C1=O	0.21

1: CC(C)C[C@@H]1NC(=O)[C@@H]2Cc3c([nH]c4ccccc34)CN2C1=O
2: O=C1NC(CS)C(=O)N2Cc3[nH]c4ccccc4c3C[C@@H]12 (single isomer, unassigned)
Higher log K: 1 or 2 ? Use the label to indicate which entry you chose. 1
